Measured koff by item
Target: T1, HLA-A*0201 loaded with the Carcinoembryonic antigen (CEA)-derived … peptide (biotin on the C-terminal biotinylation tag)
T1 construct: Soluble, biotinylated, immobilised on a streptavidin chip
Test: Biacore SPR

>  <BINDER>
SEQ ID NO 135 (receptor, mutated soluble two domain ILT-2) MGHLPKPTLWAEPGSVITMDQPVTLRCQGGQETQEYRLYREKKTAPWITRIPQELVKKGQFPIPSITWEHAGRYRCYYGSDTSQWSASSDPLELVVTGVYIKPTLSAQPSPVVNSGGNVTLQCDSPFIADGFILCKEGEDEHPQCLNSQPHARGSSRAIFSVGPVSPSRRWWYRCYAYMSWSPYEWSLPSDLLELDVDG

>  <koff>
≤ 2 s⁻¹

$$$$
>  <BINDER>
SEQ ID NO 47 (receptor, mutated soluble two domain ILT-2) MAGHLPKPTLWAEPGSVITMDQPVTLRCQGGQETQEYRLYREKKTAPWITRIPQELVKKGQFPIPSITWEHAGRYRCYYGSDTSQWSASSDPLELVVTGVYIKPTLSAQPSPVVNSGGNVTLQCDSQVAFDGFILCKEGEDEHPQCLNSQPHARGSSRAIFSVGPVSPSRRWWYRCYAYMSNAPYEWSLPSDLLELDVDG

>  <koff>
≤ 2 s⁻¹

$$$$
>  <BINDER>
SEQ ID NO 115 (receptor, mutated soluble two domain ILT-2) MHLPKPTLWAEPGSVITLRSPVTLRCQGGQETQEYRLYREKKTAPWITRIPQELVKKGQFPIPSITWEHAGRYRCYYGSDTSQWSASSDPLELVVTGVYIKPTLSAQPSPVVNSGGNVTLQCDSQVAFDGFILCKEGEDEHPQCLNSQPHARGSSRAIFSVGPVSPSRRWWYRCYAYDSNSPYEWSLPSDLLELDVDG

>  <koff>
≤ 2 s⁻¹

$$$$

The measured values listed here are drawn from patent US20100135997A1.
